The molecules listed here are annotated with their EC50.
- study.target: Corticotropin-releasing factor receptor 2/Corticotropin-releasing factor-binding protein (Homo sapiens, UniProt P24387+Q13324)
- Sequence (Q13324 whole entry): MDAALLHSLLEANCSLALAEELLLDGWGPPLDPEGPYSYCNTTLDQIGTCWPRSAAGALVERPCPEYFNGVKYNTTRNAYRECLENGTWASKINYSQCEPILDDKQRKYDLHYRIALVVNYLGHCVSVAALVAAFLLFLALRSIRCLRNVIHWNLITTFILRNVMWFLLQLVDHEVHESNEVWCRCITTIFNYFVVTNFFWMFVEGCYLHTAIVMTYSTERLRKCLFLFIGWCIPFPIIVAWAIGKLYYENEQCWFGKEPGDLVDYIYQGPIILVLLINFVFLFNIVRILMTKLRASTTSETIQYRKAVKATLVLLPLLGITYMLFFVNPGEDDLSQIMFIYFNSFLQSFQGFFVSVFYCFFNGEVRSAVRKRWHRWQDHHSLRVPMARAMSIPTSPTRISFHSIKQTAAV
- Sequence (P24387 whole entry): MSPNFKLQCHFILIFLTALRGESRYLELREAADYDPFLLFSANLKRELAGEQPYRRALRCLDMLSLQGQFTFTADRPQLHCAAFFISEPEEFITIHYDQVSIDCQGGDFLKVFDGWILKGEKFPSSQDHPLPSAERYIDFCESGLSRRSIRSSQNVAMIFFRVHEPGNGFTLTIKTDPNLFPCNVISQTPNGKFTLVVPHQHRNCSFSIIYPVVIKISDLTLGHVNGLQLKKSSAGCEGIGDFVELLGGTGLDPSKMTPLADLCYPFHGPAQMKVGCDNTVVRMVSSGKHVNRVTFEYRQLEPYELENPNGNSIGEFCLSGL
- assay.name: activators of CRF receptor 2 with binding protein – uHTS hits, confirmation (AID 602473)
- Type: functional
- details: read-out: EC50_Mean
The source made the active and inactive calls.

Below, 5 molecules whose answers are already recorded.
                                   molecule     endpoint_result
0  Clc1cnc(Oc2ccc(Oc3ncc(Cl)cc3Cl)cc2)c(Cl)c1  > 53 µM (inactive)
1  Cc1cn(CC(=O)N2CCN(c3ccccn3)CC2)c(=O)[nH]c1=O  > 53 µM (inactive)
2              O=[N+]([O-])c1ccc2nc(S)sc2c1    27.1 µM (active)
3  Cc1ccc(NC(=O)C2CCCN2C(=O)c2cccs2)cc1C (stereo unspecified)  > 53 µM (inactive)
4   CCCc1nc2sc3ccccc3c(=O)c2c(=O)n1Cc1ccco1    13.8 µM (active)

I have this molecule here, `CCOC(=O)/C(=N\Nc1ccc(C(C)=O)cc1)c1csc(Nc2ccccc2)n1` , and I need its recorded EC50.
18.3 µM (active)

* * *

- study.target: Luciferin 4-monooxygenase (Photinus pyralis)
- Sequence (P08659 whole entry): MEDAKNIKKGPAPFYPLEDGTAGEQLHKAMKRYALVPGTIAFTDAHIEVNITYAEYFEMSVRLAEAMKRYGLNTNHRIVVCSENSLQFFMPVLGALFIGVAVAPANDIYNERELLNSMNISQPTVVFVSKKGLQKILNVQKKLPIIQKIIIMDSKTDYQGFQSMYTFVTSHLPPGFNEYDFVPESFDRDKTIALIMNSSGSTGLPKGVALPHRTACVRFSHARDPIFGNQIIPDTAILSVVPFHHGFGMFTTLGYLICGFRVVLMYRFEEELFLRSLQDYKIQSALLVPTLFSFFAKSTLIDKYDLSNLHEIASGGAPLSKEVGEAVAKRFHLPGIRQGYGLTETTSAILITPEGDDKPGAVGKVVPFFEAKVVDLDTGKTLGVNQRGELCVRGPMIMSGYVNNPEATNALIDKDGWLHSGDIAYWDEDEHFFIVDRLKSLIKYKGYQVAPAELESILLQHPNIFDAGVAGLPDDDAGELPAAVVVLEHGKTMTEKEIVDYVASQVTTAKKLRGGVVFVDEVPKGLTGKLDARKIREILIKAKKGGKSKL
- assay.name: inhibition of purified Photinus pyralis luciferase – biochemical, luminescence, dose response (AID 1891)
The source made the active and inactive calls.
observation.type: EC50

>>> print(df.to_string())
                                   compound        endpoint_result
0  N#CCCN(C(=O)COC(=O)CCc1c[nH]c2ccccc12)c1ccc(F)cc1  > 112 µM (not active)
1                 COc1ccc(NC(=O)c2cccs2)cc1       17.4 µM (active)
2  Cc1cc(Nc2cccc([N+](=O)[O-])c2)c2cccc(C)c2n1  > 112 µM (not active)
3  C/C=C/c1ccc(OCc2cc(=O)n3cc(C)ccc3n2)c(OC)c1  > 112 µM (not active)
4  Cc1n[nH]c(S/C(C(=O)O)=C2/C(=O)Nc3ccccc32)n1       15.9 µM (active)

// returns reported EC50 for input `O=C(Cn1c2ccccc2c(=O)c2ccccc21)N/N=C/c1ccc(N2CCCC2)c([N+](=O)[O-])c1`
> 112 µM (not active)

Entry under review: `COc1ccc(OC)c(N/C=C/C(=O)c2ccccc2)c1` . Reported EC50?
0.276 µM (active)

Find the recorded EC50 belonging to `COc1ccc(/C=N/N=C(/N)N[N+](=O)[O-])c(OC)c1` and report it.
> 112 µM (not active)

So what does the record say about EC50 for `CCCCOC(=O)CCc1c(C)nc(O)c(C#N)c1C` ?
> 112 µM (not active)

Give its EC50 value. Item: `O=C(Nc1cnn(Cc2ccc(F)cc2)c1)C(c1ccccc1)c1ccccc1`
49.5 µM (active)

Any idea what its EC50 is? The compound is Cc1ccc(NC(=O)CC2C(=O)NC3CCCCC3N2C(=O)c2ccc(F)cc2)cc1C (stereo unspecified)
> 112 µM (not active)

* * *

- study.target: Mannose-6-phosphate isomerase (Homo sapiens)
- Sequence (P34949 whole entry): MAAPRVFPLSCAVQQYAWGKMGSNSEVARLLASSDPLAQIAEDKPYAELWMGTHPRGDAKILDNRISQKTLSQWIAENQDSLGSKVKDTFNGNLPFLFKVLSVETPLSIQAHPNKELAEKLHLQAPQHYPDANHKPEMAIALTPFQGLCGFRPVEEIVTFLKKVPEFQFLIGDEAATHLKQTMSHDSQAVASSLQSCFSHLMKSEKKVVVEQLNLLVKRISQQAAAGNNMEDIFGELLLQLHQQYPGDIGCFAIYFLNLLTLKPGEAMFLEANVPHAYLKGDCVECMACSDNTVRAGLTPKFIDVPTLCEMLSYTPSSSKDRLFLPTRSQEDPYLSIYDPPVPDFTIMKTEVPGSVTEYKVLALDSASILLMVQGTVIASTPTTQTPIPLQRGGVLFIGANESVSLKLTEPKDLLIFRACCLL
- assay.name: MPI inhibition at elevated mannose 6-phosphate – biochemical, fluorescence intensity, high mannose 6-phosphate, primary screen (AID 1220)
Calls of active or inactive are those of the source.
IC50 by entry:

Study these solved cases before continuing.
>>> print(df.to_string())
                                   compound                              study_target  observation_type       endpoint_result
0          CCCc1nc2c(=O)n(C)c(=O)nc-2n(C)n1  Mannose-6-phosphate isomerase (Homo sapiens)              IC50      13.2 µM (active)
1  CN1C(=O)N(C)C(=O)C2(Cc3c(ccc4ccccc34)N(C)C2)C1=O  Mannose-6-phosphate isomerase (Homo sapiens)              IC50  > 50 µM (not active)
2  CCOC(=O)c1c(C)oc2c1c(/C=N/C1CCS(=O)(=O)C1)c(O)c1ccccc12 (configuration not stated)  Mannose-6-phosphate isomerase (Homo sapiens)              IC50  > 50 µM (not active)
3  O=C(Cn1sc2ccccc2c1=O)NC12CC3CC(CC(C3)C1)C2  Mannose-6-phosphate isomerase (Homo sapiens)              IC50  > 50 µM (not active)
4        COc1cccc(CNc2ccc(N3CCCCC3)cc2)c1OC  Mannose-6-phosphate isomerase (Homo sapiens)              IC50  > 50 µM (not active)
5  CCOc1cccc(CNc2ccc(O)cc2)c1OCc1ccc(Cl)cc1  Mannose-6-phosphate isomerase (Homo sapiens)              IC50  > 50 µM (not active)

Turning now to a further compound:
Item `Cc1nc([N+](=O)[O-])nn1C12CC3CC(CC(Br)(C3)C1)C2` has what recorded IC50?
26.3 µM (active)

* * *

- study.target: Heat shock factor protein 1 (Mus musculus, UniProt P38532)
- Sequence (P38532 whole entry): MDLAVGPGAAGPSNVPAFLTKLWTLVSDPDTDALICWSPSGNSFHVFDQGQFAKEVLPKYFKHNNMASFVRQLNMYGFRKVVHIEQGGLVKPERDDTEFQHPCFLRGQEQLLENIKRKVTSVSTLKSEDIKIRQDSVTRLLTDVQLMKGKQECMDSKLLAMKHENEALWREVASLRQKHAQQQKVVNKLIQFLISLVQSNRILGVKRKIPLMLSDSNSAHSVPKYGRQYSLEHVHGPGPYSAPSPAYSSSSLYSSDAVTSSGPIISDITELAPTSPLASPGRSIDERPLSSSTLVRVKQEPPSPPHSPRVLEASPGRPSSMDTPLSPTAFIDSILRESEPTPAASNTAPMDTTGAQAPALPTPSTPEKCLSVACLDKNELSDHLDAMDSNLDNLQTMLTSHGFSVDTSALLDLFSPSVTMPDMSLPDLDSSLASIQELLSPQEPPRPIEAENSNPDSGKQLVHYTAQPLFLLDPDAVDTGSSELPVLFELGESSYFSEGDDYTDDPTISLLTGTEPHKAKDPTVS
- assay.name: decrease of HSF1-responsive luciferase luminescence – cell-based, NIH3T3, dose retest, confirmation (AID 2382);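 further: NIH3T3 fibroblasts with HSF1-driven luciferase reporter stressed by proteasome inhibitor MG132; luminescence from HSF1-driven luciferase expression after 8 hours of MG132 stress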
- Type: functional
Calls of active or inactive are those of the source.
# EC50 listing for each entry below

>>> df
                                   molecule                              study_target  observation_type        endpoint_result
0  Cc1nc(NC(C)c2ccccc2)sc1C(=O)Nc1ccccc1 (configuration not stated)  Heat shock factor protein 1 (Mus musculus, UniProt P38532)              EC50  > 195 µM (not active)
1   O=C(Cc1ccccc1)Nc1cccc(N2C(=O)C=CC2=O)c1  Heat shock factor protein 1 (Mus musculus, UniProt P38532)              EC50         19 µM (active)
2     O=C(Nc1cccc(O)c1)c1cc(-c2ccccc2Cl)on1  Heat shock factor protein 1 (Mus musculus, UniProt P38532)              EC50  > 195 µM (not active)
3      COc1ccc(C(=O)c2c[nH]cc2-c2ccccc2)cc1  Heat shock factor protein 1 (Mus musculus, UniProt P38532)              EC50  > 195 µM (not active)

Please report the recorded EC50 for `NN=C(S)Nc1ccccc1Cl` .
> 195 µM (not active)

Reported EC50 for `COC(=O)c1cc(S(=O)(=O)NCc2ccc(F)cc2)cn1C` : what is it?
> 195 µM (not active)

For the molecule `CCC(CC)c1nc(C#N)c(NCc2ccccc2)o1` , what EC50 is on record?
107 µM (active)

* * *

Reported AC50 is given for each of the following compounds.
- study.target: Microphthalmia-associated transcription factor (Homo sapiens, UniProt O75030)
- Sequence (O75030 whole entry): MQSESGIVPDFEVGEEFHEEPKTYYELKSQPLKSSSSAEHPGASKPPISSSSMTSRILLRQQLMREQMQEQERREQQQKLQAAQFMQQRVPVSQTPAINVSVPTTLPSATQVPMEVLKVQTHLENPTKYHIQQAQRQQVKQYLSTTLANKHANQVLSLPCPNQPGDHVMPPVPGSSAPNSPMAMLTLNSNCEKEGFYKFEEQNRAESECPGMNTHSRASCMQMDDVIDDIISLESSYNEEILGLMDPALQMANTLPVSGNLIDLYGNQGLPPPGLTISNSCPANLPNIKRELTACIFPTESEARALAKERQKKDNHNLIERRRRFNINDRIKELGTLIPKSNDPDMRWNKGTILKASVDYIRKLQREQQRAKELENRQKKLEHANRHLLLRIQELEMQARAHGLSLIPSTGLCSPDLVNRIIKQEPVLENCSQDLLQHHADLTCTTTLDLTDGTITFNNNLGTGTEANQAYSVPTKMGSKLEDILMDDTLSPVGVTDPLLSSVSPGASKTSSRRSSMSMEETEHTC
- assay.name: reducers of TRPM1 reporter luminescence, concentration series – cell-based, SK-MEL-5, cherry-picked, set 3, MITF inhibitor project, dose response (AID 493073);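 further: SK-MEL-5 melanoma cells with luciferase driven by the MITF target TRPM1 promoter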
- Format: functional
Activity calls are given as the source filed them.

>>> df
                                   compound  observation_type   endpoint_result
0  CCOC(=O)CSC1=NC(=O)/C(=C/c2ccc(OC)cc2)S1              AC50  3.98 µM (active)
1  CN(C)C1CCN(Cc2cc(COCc3ccccc3)c3cccnc3c2O)C1 (configuration not stated)              AC50  9.99 µM (active)
2      Cc1c(C#N)c(NC(=O)CCl)n(Cc2ccccc2)c1C              AC50  11.2 µM (active)
3  Cc1ccc(S(=O)(=O)CC(CN2CCCCC2)N2CCCCC2)cc1 (configuration not stated)              AC50   8.1 µM (active)
4  CCN1CCN(C2=C(NS(=O)(=O)c3ccc(Br)cc3)C(=O)c3ccccc3C2=O)CC1              AC50   5.7 µM (active)
5  C=C1C(=O)C=C[C@]2(C)C[C@@H]3OC(=O)[C@](C)(O)[C@H]3C[C@@H]12              AC50  10.3 µM (active)

Turning to the following compound.
// returns reported AC50 for input CCN(CC)CCNC(=O)c1ccc(NC(=O)c2cccc(S(=O)(=O)N3c4ccccc4CC3C)c2)cc1 (configuration not stated)
10.5 µM (active)
